# measured-on: Interferon-induced, double-stranded RNA-activated protein kinase (Homo sapiens, UniProt P19525)
# Sequence (P19525 whole entry): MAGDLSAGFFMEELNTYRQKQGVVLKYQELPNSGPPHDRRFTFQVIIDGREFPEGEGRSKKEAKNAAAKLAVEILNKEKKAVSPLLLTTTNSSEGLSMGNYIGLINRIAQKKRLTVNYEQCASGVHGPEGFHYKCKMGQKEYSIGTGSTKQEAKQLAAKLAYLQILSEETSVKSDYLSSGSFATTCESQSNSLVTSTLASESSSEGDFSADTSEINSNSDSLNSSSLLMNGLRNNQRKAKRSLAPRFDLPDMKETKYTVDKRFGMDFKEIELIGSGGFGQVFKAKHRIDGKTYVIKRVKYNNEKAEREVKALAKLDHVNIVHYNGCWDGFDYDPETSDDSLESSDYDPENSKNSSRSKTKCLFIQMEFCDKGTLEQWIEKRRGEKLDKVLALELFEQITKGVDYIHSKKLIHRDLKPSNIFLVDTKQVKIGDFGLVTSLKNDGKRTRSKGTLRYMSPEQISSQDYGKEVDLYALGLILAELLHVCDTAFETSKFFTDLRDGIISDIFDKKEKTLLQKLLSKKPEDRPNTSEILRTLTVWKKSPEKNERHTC
# test-details: Inhibition of human recombinant PKR autophosphorylation using poly[I:C] after 10 mins by luminescent assay
pIC50: −log10 of the molar value.
attribute-measured: pIC50

1) c1ccc2c(CCNc3nccc(-c4c[nH]nc4-c4ccncc4)n3)c[nH]c2c1 : 4.29
2) O=C1Nc2cc(Br)ccc2/C1=C1/Nc2ccccc2/C1=N\O : 6.22
3) COCCCNc1nccc(-c2c(C)[nH]c3ccccc23)n1 : 5.82
4) Cc1[nH]c2ccc(Cl)cc2c1-c1ccnc(NC2CCCC2)n1 : 5.10

---

# measured-on: Interferon-induced, double-stranded RNA-activated protein kinase (Homo sapiens, UniProt P19525)
# test-details: Inhibition of human recombinant PKR autophosphorylation using poly[I:C] after 10 mins by luminescent assay
attribute-measured: IC50 (µM)

1) CN1C(=O)NC(=O)/C(=C\c2c[nH]c3ccc(O)cc23)C1=O : 3
2) Cc1[nH]c2ccccc2c1-c1ccnc(Nc2ccc(F)c(F)c2)n1 : 1.5
3) Cn1ncc2c(N3CCOCC3)nc(NCCc3c[nH]c4ccccc34)nc21 : 11
4) CCN(CC)C(=O)c1ccc(Nc2nc(OCC3CCCCC3)c3nc[nH]c3n2)cc1 : 2
5) Cc1[nH]c2ccccc2c1-c1ccnc(NCCc2c[nH]c3ccccc23)n1 : 9
6) Cn1nc2c3c(cccc31)C(=O)c1ccccc1-2 : 12
7) Cc1[nH]c2ccccc2c1-c1ccnc(NCc2cccnc2)n1 : 45
8) Cc1[nH]c2ccc(Cl)cc2c1-c1ccnc(Nc2cccc(Cl)c2)n1 : 2.5
9) CCn1cnc2c(Nc3cccc(Cl)c3)nc(N[C@@H]3CCCC[C@@H]3N)nc21 : 3
10) Cc1[nH]c2ccccc2c1-c1ccnc(NC(CO)C(C)C)n1 (stereo unspecified) : 50
11) Cc1[nH]c2ccc(Cl)cc2c1-c1ccnc(NCCN2CCOCC2)n1 : 12
